# Test system: 616215-338-R-J1-PDC tumor spheroids, viability;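 also: spheroids exposed to agents for 7 days before readout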
# experiment: Anticancer human tumor 616215-338-R-J1-PDC patient-derived colon adenocarcinoma cell line growth inhibition [GQUAD]
# applied.conditions: curve of first compound; second compound 1 µM; spheroids with HUVEC and MSC
pIC50: −log10 of the molar value.
readout.kind: pIC50

Worked examples follow.
Cn1ncnc1[C@H]1c2n[nH]c(=O)c3cc(F)cc(c23)N[C@@H]1c1ccc(F)cc1 + Cc1cnc(CNC(=O)c2c(=O)c3ccc(N4CCCN(C)CC4)nc3n3c2sc2ccccc23)cn1    > 9.00
COc1ccc([C@@H](O)c2cc(-c3ncnc4cc(N5CCOCC5)ccc34)c(F)cc2Cl)nn1 + Cc1cnc(CNC(=O)c2c(=O)c3ccc(N4CCCN(C)CC4)nc3n3c2sc2ccccc23)cn1    > 7.50
CC(=O)O[C@H]1C(=O)[C@@]2(C)[C@H]([C@H](OC(=O)c3ccccc3)[C@]3(O)C[C@H](OC(=O)[C@H](O)[C@@H](NC(=O)c4ccccc4)c4ccccc4)C(C)=C1C3(C)C)[C@]1(OC(C)=O)CO[C@@H]1C[C@@H]2O + CN(C)c1ccc(Nc2c3ccc(NC(=O)CCN4CCCC4)cc3nc3cc(NC(=O)CCN4CCCC4)ccc23)cc1    > 7.50
C=CC(=O)N1CCN(c2nc(=O)n(-c3c(C)ccnc3C(C)C)c3nc(-c4c(O)cccc4F)c(F)cc23)C(C)C1 (stereo not given) + Cc1cnc(CNC(=O)c2c(=O)c3ccc(N4CCCN(C)CC4)nc3n3c2sc2ccccc23)cn1    > 7.50

Next compound, please.
Which pIC50 is listed for COc1ncnc(C2CC2)c1-c1ncc2cnn(Cc3ccc(-c4nc(C(F)(F)F)cn4C(C)C)cc3)c2n1 + Cc1cnc(CNC(=O)c2c(=O)c3ccc(N4CCCN(C)CC4)nc3n3c2sc2ccccc23)cn1 ? > 7.50
